These data points were gathered from ChEMBL document CHEMBL1143432.

experiment: Ratio of ED50 for drug resistant HIV1 with reverse transcriptase K103N mutant to wild type HIV1 NL4-3; format: functional
For each of the compounds below, state its Ratio EC50.
Output: the number by itself.

Q. Item "CSc1nc(N)c(C)c(C(=O)c2cccc(F)c2)n1" has what recorded Ratio EC50?
A. 20

Q. Quick check: Ratio EC50 of "COc1ccc(CSc2nc(Cc3c(Cl)cccc3Cl)c(C)c(=O)[nH]2)cc1" ?
A. 671

Q. Please report the recorded Ratio EC50 for "CSc1nc(N)c(C)c(C(=O)c2ccccc2)n1" .
A. 28

Q. Ratio EC50 for "Cc1c(N)nc(S(C)(=O)=O)nc1C(=O)c1ccccc1" ?
A. 43

Q. Given the entry "Cc1ccnc2c1NC(=O)c1cccnc1N2C1CC1" , report its measured Ratio EC50.
A. 17
